Just for reference, ChEMBL document CHEMBL5149972 is where these values come from.

- Test system: Plasmodium falciparum
- assay.name: Antiplasmodial activity against drug resistant Plasmodium falciparum Dd2 infected in human RBC assessed as parasite growth inhibition incubated for 72 hrs by SYBR Green dye based fluorescence assay
- Type: functional, organism-based
- condition.label: Plasmodium falciparum, Dd2, Erythrocyte, 72 h
pEC50: −log10 of the molar value.
The label depends only on pEC50: Criterion met if it is at least 6, Criterion not met if it is smaller.

Cc1ccccc1N(C)C(=O)C(c1cccnc1)N(Cc1cccc(OC(F)(F)F)c1)C1CC1 (racemic) = Criterion met
Cc1ncc(C(C(=O)N(C)c2ccccc2C)N(Cc2cccc(C(F)(F)F)c2)C2CC2)cn1 (racemic) = Criterion not met
Cc1ccccc1N(C)C(=O)C(c1cccnc1)N(Cc1cccc(SC(F)(F)F)c1)C1CC1 (racemic) = Criterion met
Cc1ccccc1-n1nnnc1C(c1cncnc1)N(Cc1cccc(C(F)(F)F)c1)C1CC1 (racemic) = Criterion not met
CCCN(C(c1cncnc1)c1nnnn1-c1ccccc1C)C1(c2cccc(C(F)(F)F)c2)CC1 (racemic) = Criterion met
Cc1ccccc1-n1nnnc1C(c1cccnc1)N(Cc1cccc(C(F)(F)F)c1)C1CC1 (racemic) = Criterion met

----------
- System: HepG2
- assay.name: Cytotoxicity against human HepG2 cells assessed as reduction in cell viability incubated for 72 hrs by CellTiter-Glo assay
- Assay type: toxicity, cell-based
- condition.label: hepg2, 72 h
Listed here: items and their measured CC50.
readout.kind: CC50

O=C(C(c1cccnc1)N(Cc1cccc(C(F)(F)F)c1)C1CC1)N1CCCCC1 (racemic) = > 20 µM
Cc1ccccc1N(C)C(=O)C(c1cncnc1)N(Cc1cccc(OC(F)(F)F)c1)C1CC1 (racemic) = > 30 µM
Cc1ccccc1N(C)C(=O)C(c1cccnc1)N(Cc1cccc(C(F)(F)F)c1)C1CC1 (racemic) = > 30 µM
Cc1ccccc1-n1nnnc1C(c1cncnc1)N(Cc1cc(F)cc(C(F)(F)F)c1)C1CC1 (single isomer, unassigned; (-)) = > 30 µM

----------
- Test system: Plasmodium falciparum
- assay.name: Antiplasmodial activity against Plasmodium falciparum NF54 expressing transgenic luciferase assessed as parasite kill rate at trophozoite stage incubated for 6 hrs by bioluminescence relative rate of kill (BRRoK) assay
- Assay type: functional, organism-based
- condition.label: RBC
Calls of active or inactive are those of the source. No cut-off for these calls is given here.
readout.kind: Activity

CCC(C(=O)Nc1cccc(Cl)c1)N1C(=O)C(C)N=C(c2ccccc2)c2ccccc21 (stereo unspecified) = Active
CC(=O)c1ccc(NC(=O)c2ccc(NC(=O)C3COc4ccccc4O3)cc2)cc1 (stereo unspecified) = Active
CCN(CC)CCCC(C)Nc1ccnc2cc(Cl)ccc12 (stereo unspecified) = Active
Cc1cc(Nc2ccc(S(F)(F)(F)(F)F)cc2)n2nc(C(C)(F)F)nc2n1 = Active
O=C1C(O)=C([C@H]2CC[C@H](c3ccc(Cl)cc3)CC2)C(=O)c2ccccc21 = Active
C[C@@H]1CC[C@H]2[C@@H](C)C(=O)O[C@@H]3O[C@@]4(C)CC[C@@H]1[C@]32OO4 = Active

----------
EC50 for assorted molecules
- Tested on: Plasmodium falciparum
- assay.name: Antiplasmodial activity against chloroquine and pyrimethamine resistant Plasmodium falciparum 7G8 infected in human RBC assessed as parasite growth inhibition incubated for 72 hrs by SYBR Green dye based fluorescence assay
- Assay type: functional, organism-based
- condition.label: 7G8, Erythrocyte
readout.kind: EC50 (nM)

Cc1ccccc1-n1nnnc1C(c1cncnc1)N(Cc1cccc(C(F)(F)F)c1)C1CC1 (racemic) = 160
Cc1ccccc1-n1nnnc1C(c1cccnc1)N(Cc1cccc(C(F)(F)F)c1)C1CC1 (racemic) = 180

----------
- Tested on: Plasmodium falciparum
- assay.name: Antiplasmodial activity against asexual blood stage Plasmodium falciparum 3D7 infected in human RBC assessed as parasite growth inhibition incubated for 72 hrs by SYBR Green dye based fluorescence assay
- Format: functional, organism-based
- condition.label: Plasmodium falciparum, 3D7, Erythrocyte, 72 h
Measured EC50 accompanies every entry in the list below.
readout.kind: EC50 (nM)

CN(Cc1cc(C(F)(F)F)ccc1F)C(c1cccnc1)c1nnnn1C1CCCCC1 (racemic) = 1700
Cc1ccccc1N(C)C(=O)C(c1cccnc1)N(Cc1cccc(SC(F)(F)F)c1)C1CC1 (racemic) = 310
CCCN(C(c1cccnc1)c1nnnn1-c1ccccc1C)C1(c2cccc(C(F)(F)F)c2)CC1 (racemic) = 230
O=C(C(c1cccnc1)N(Cc1cccc(C(F)(F)F)c1)C1CC1)N1CCCCC1 (racemic) = 1800
Cc1ccccc1-n1nnnc1C(c1cccnc1)N(Cc1cc(C(F)(F)F)ccc1F)C1CC1 (racemic) = 600
COc1ccc(C(F)(F)F)cc1CN(C)C(c1cccnc1)c1nnnn1-c1ccccc1C (racemic) = 1300
Cc1ccccc1N(C)C(=O)C(c1cccnc1)N(Cc1cc(C(F)(F)F)ccc1F)C1CC1 (racemic) = 310
Cc1ccccc1-n1nnnc1C(c1cccnc1)N(Cc1cccc(C(F)(F)F)c1)C1CC1 (racemic) = 380

----------
Item-by-item account of CC50
- Tested on: HepG2
- assay.name: Cytotoxicity against human HepG2 cells assessed as reduction in cell viability incubated for 72 hrs by CellTiter-Glo assay
- Type: toxicity, cell-based
- condition.label: hepg2, 72 h
readout.kind: CC50

CN(C(=O)C(c1cncnc1)N(Cc1cccc(C(F)(F)F)c1)C1CC1)c1ccccc1 (racemic) = > 30 µM
COc1ccc(Br)cc1CN(C)C(c1ccccc1)c1nnnn1-c1ccccc1C (racemic) = > 30 µM
Cc1ccccc1N(C)C(=O)C(c1cccnc1)N(Cc1cc(C(F)(F)F)ccc1F)C1CC1 (racemic) = > 30 µM
CCc1ccccc1N(C)C(=O)C(c1cccnc1)N(Cc1cccc(C(F)(F)F)c1)C1CC1 (racemic) = > 20 µM

----------
- System: Plasmodium falciparum
- assay.name: Antiplasmodial activity against drug resistant Plasmodium falciparum Dd2 infected in human RBC assessed as parasite growth inhibition incubated for 72 hrs by SYBR Green dye based fluorescence assay
- Format: functional, organism-based
- condition.label: Plasmodium falciparum, Dd2, Erythrocyte, 72 h
pEC50: −log10 of the molar value.
readout.kind: pEC50

CCCN(C(C(=O)N(C)c1ccccc1C)c1cccnc1)C1(c2cccc(C(F)(F)F)c2)CC1 (racemic) = 6.48
FC(F)(F)c1cccc(CN(C2CC2)C(c2cccnc2)c2nnnn2C2CC2)c1 (racemic) = 5.52
COc1ccc(C(F)(F)F)cc1CN(C1CC1)C(c1cccnc1)c1nnnn1-c1ccccc1C (racemic) = 6.32
Cc1ccccc1N(C)C(=O)C(c1cccnc1)N(Cc1cc(C(F)(F)F)ccc1F)C1CC1 (racemic) = 6.34

----------
# CC50 at 72 h annotations
- assay.name: Cytotoxicity against human HepG2 cells assessed as reduction in cell viability incubated for 72 hrs by CellTiter-Glo assay
- Assay type: toxicity, cell-based
- condition.label: HepG2 cells
readout.kind: CC50 at 72 h

Cc1cc(Nc2ccc(S(F)(F)(F)(F)F)cc2)n2nc(C(C)(F)F)nc2n1 = > 30 µM
Cc1ccccc1-n1nnnc1C(c1cncnc1)N(Cc1cccc(C(F)(F)F)c1)C1CC1 (racemic) = 33 µM
CCN(CC)CCCC(C)Nc1ccnc2cc(Cl)ccc12 (stereo not drawn) = > 30 µM
C[C@@H]1CC[C@H]2[C@@H](C)C(=O)O[C@@H]3O[C@@]4(C)CC[C@@H]1[C@]32OO4 = > 30 µM
CC(=O)c1ccc(NC(=O)c2ccc(NC(=O)C3COc4ccccc4O3)cc2)cc1 (stereo not drawn) = > 30 µM
CCC(C(=O)Nc1cccc(Cl)c1)N1C(=O)C(C)N=C(c2ccccc2)c2ccccc21 (stereo not drawn) = > 30 µM
Cc1ccccc1-n1nnnc1C(c1cncnc1)N(Cc1cc(F)cc(C(F)(F)F)c1)C1CC1 (racemic) = 36 µM
O=C1C(O)=C([C@H]2CC[C@H](c3ccc(Cl)cc3)CC2)C(=O)c2ccccc21 = > 30 µM

----------
- Tested on: Plasmodium falciparum
- assay.name: Antiplasmodial activity against drug resistant Plasmodium falciparum Dd2 infected in human RBC assessed as parasite growth inhibition incubated for 72 hrs by SYBR Green dye based fluorescence assay
- Format: functional, organism-based
- condition.label: Plasmodium falciparum, Dd2, Erythrocyte, 72 h
EC50 listing for selected compounds.
readout.kind: EC50

Cc1ccccc1-n1nnnc1C(C1CC1)N(Cc1cccc(C(F)(F)F)c1)C1CC1 (racemic) = 3200 nM
Cc1ccccc1N(C)C(=O)C(c1cccnc1)N(Cc1cccc(C(F)(F)F)c1)C1CC1 (racemic) = 590 nM
Cc1ncccc1C(c1nnnn1C1CC1)N(C1CC1)C1(c2cccc(C(F)(F)F)c2)CC1 (racemic) = 16000 nM
Cc1ccccc1-n1nnnc1C(c1cccnc1)N(Cc1cc(C(F)(F)F)ccc1F)C1CC1 (racemic) = 670 nM
Cc1ccccc1N(C)C(=O)C(c1cncnc1)N(Cc1cccc(SC(F)(F)F)c1)C1CC1 (racemic) = 1000 nM
CN(Cc1cc(C(F)(F)F)ccc1F)C(c1cccnc1)c1nnnn1C1CCCCC1 (racemic) = 2600 nM
COc1ccc(Br)cc1CN(C)C(c1ccccc1)c1nnnn1-c1ccccc1C (racemic) = 5400 nM
Cc1ccccc1-n1nnnc1C(c1cccnc1)N(C)Cc1cc(C(F)(F)F)ccc1F (racemic) = 2500 nM
